Data provenance: patent US20230203185A1

target: control human IgG (human); experiment: ELISA, periplasmic extract on control IgG
# Lookup of reported O.D. 450 keyed by entry

binder | unitString | O.D. 450
VHH 015 (2G01) (VHH, Llama single domain antibody; also called 150(#15); VHCDR3 150(#15); not shown: tags: c-myc tag in periplasmic extract (ELISA, FACS); FLAG and His tags in purified VHH (SPR, infection assays)) VHH: QVQLVESGGGLVQAGDTLRLSCTASGRTFSSYSMGWFRQAPGKEREFVAAITWNGYITNYADSVKGRFTISRDNTKNTVFLQMNSLKPEETAVYYCAATTFSTTSPISRTYNYWGPGTQVTVSS | O.D. 450 | 0.058
VHH 008 (1H01) (VHH, Llama single domain antibody; also called 78(#8); VHCDR3 78(#8); not shown: tags: c-myc tag in periplasmic extract (ELISA, FACS); FLAG and His tags in purified VHH (SPR, infection assays)) VHH: QVQLVESGGGLVQAGGSLRLSCAASGRTFGTYSMGWFRQAPGKEREFVAAHRWSGSAYYAEHADSVEGRFTISRDYAKNMLYLQMNSLKHEDTAVYYCAAGVGSEAQYRYWGRGTQVTVSS | O.D. 450 | 0.06
VHH 019 (3E11) (VHH, Llama single domain antibody; also called 47(#19); VHCDR3 47(#19); not shown: tags: c-myc tag in periplasmic extract (ELISA, FACS); FLAG and His tags in purified VHH (SPR, infection assays)) VHH: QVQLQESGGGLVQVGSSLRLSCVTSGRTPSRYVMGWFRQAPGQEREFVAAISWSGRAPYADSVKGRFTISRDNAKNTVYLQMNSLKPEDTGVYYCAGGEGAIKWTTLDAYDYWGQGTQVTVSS | O.D. 450 | 0.054
VHH 017 (3D03) (VHH, Llama single domain antibody; also called 29(#17); VHCDR3 29(#17); not shown: tags: c-myc tag in periplasmic extract (ELISA, FACS); FLAG and His tags in purified VHH (SPR, infection assays)) VHH: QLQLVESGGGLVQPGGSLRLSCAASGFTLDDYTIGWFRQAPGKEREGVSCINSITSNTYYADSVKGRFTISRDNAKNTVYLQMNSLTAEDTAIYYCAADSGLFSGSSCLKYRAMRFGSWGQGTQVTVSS | O.D. 450 | 0.053
